Biological target: MBP-FoxP1dN (Mus musculus, UniProt P58462 326-579)
Sequence: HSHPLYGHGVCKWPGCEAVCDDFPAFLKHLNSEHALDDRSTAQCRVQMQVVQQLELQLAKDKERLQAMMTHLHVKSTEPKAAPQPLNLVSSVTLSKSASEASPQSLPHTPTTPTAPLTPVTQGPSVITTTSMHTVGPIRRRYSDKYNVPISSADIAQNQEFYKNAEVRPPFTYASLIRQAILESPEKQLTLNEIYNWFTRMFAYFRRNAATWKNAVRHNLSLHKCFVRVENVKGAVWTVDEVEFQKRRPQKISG
Experiment: PD-seq (MBP pull-down with sequencing); 20 mM Tris-HCl pH 7.5, 100 mM NaCl, 1.5 mM MgCl2, 0.4 uM protein, 0.1 uM dsDNA library, 30 min, room temperature, amylose pull-down; high values mean tight binding
Conditions: protein: recombinant; tags: His6-MBP; chain copies: 2; dsDNA, one strand shown
Over roughly 16,000 sequences, “rpm ratio (pull-down/input)” has its median near 0.94; the highest 2% begin near 1.7. For the sample, the highest values were picked, then their nearest neighbours and some sequences at random.
reported.metric: binding signal

Example results:
{"columns": ["query.sequence", "reported.metric", "result"],
 "data": [
  ["GATGATTGTTCTCCCAGCTGATGAATTGAATGGCTCGAGTAAACAAATTTTCCTAATCTTTCTGTTCAAGCGCCATCTAC", "binding signal", "0.823 RPM ratio (pull-down/input)"],
  ["GATGATTGTTCTCCCAGCTGATGAATTTGGTACGTCGAGTAAACAAATTTTCCTAATCTTTCTGTTCAAGCGCCATCTAC", "binding signal", "0.997 RPM ratio (pull-down/input)"]
]}

Please look at GATGATTGTTCTCCCAGCTGATGAATTTCTGATGTCGAGTAAACAAATTTTCCTAATCTTTCTGTTCAAGCGCCATCTAC and tell me its recorded binding signal on MBP-FoxP1dN (Mus musculus, UniProt P58462 326-579).
1.23 RPM ratio (pull-down/input)
